Tested on: SF-539 CNS
assay: NCI-60 one-dose screen, 48 h
assay conditions: 10 µM unless noted
About 83,000 compounds went through this panel and 20% of them were active in at least one assay; those are over-represented in the sample as a whole. The source made the active and inactive calls. Rule for the calls: active = growth percent below 10; inactive = the rest.
Field 'call' accepts active, inactive

Use these answered entries as a reference point.
[[record]]
compound_smiles = "Cc1ccc(OCc2occc2C(=O)N2CCOCC2)cc1"
system_tested = "SF-539 CNS"
class = "inactive"

[[record]]
compound_smiles = "O=C(NNc1nc2cc(F)cc(F)c2n2cccc12)c1cccnn1"
system_tested = "SF-539 CNS"
class = "active"


Task: Dear all, I need the recorded test outcome for "O=S(=O)(Oc1ccc(-c2cn3ccsc3n2)cc1)c1cccc(C(F)(F)F)c1" , thank you.
Output: inactive

Task: Now this one: "O=C(CCCCCCNC(=O)C(O)(O)C(F)(F)F)Nc1ncc(-c2ccccc2)s1"
Output: inactive

Task: Same question, "CC1(C)C=Cc2cc(/C(N)=N/C(N)=N/c3nc4ccccc4s3)ccc2O1" this time
Output: inactive

Task: Repeat with "CCc1cc2c(cc1Cl)nc1c(=O)[nH]c(=O)nc-1n2CCOCC(C)C"
Output: inactive

Task: How about this compound: "CCc1nnc(NC(=O)c2cc(-c3ccc(Cl)cc3Cl)oc2C)s1"
Output: inactive

Task: Another compound to look at: "Cc1ccccc1Nc1nc(SC(C)C)nc(-c2ccccc2)c1C#N"
Output: inactive

Task: Same thing, different compound: "Cc1ccc(C(=O)CSc2nnc(-c3ccc(-c4ccc(Cl)cc4)nc3C)o2)cc1"
Output: inactive

Task: Similarly, "CCCCc1nc2c(N)nc3ccccc3c2n1Cc1ccc(OC)cc1" ?
Output: inactive

Task: Cool, now "Cn1ncc2c(C(=O)c3ccc(F)cc3)nc(C(C)(C)C)nc21"
Output: inactive

Task: What about this compound? "COc1ccc(Cn2cc(C#N)c(N)c2C(C)=O)cc1"
Output: inactive

Task: # repeat for "C=C1CCc2nc(SCC(=O)O)ccc2N1"
Output: inactive

Task: Do the same for "Fc1ccc2nc(-c3cnn4cccnc34)sc2c1" please
Output: inactive

Task: Next up: "O=C(/C=C/c1ccc(Cl)c(Cl)c1)Nc1ncc(Cc2ccc(Cl)c(Cl)c2)s1"
Output: inactive

Task: Then "N#Cc1nc(-c2ccccc2)oc1N1CCC(C2(C(F)(F)F)N=N2)CC1" ?
Output: inactive

Task: Try the compound "COc1ccc2c(c1)c(-c1nn3cc(-c4ccncc4)nc3s1)cn2C"
Output: inactive

Task: Now consider "CC(=C(c1ccc(OCCN2CCCC2)cc1)c1ccc(OCCN2CCCC2)cc1)c1ccc(Cl)cc1" .
Output: active

Task: Consider next the compound "COc1ccc(/C=N/NC(=O)CSc2nc(-c3cnccn3)cc(-c3cccs3)c2C#N)cc1OC" in the same way.
Output: inactive
